Quick note: these are pIC50 numbers for system: Acetylcholinesterase (Homo sapiens)
Sequence (P22303 whole entry): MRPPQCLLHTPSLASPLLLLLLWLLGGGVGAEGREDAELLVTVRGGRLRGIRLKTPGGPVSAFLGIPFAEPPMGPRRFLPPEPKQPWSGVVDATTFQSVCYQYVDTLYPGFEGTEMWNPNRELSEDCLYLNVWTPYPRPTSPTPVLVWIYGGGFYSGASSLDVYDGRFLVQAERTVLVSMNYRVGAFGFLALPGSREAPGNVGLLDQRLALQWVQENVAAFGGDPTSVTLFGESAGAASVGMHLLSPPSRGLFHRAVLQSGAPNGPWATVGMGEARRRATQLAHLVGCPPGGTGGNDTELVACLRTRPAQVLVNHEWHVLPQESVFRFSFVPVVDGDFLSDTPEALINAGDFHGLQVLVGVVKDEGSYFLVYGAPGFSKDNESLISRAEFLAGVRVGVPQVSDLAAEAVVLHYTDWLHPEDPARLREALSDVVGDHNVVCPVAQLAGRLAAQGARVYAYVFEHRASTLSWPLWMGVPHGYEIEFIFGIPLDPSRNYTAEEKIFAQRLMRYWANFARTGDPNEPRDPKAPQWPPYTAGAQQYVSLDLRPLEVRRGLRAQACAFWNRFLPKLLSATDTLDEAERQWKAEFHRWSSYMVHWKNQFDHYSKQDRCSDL
Give bare numbers, as −log10 of the molar value.

COMPOUND: CCC(c1ccc(O)c(OC)c1)c1cccc(O)c1O (configuration not stated)
SYSTEM: Acetylcholinesterase (Homo sapiens)
MEASURED: 5.25

Query string: I would be grateful if you could share the reported pIC50 for CCC(c1ccc(O)c(OC)c1)c1ccc(OC)cc1O (configuration not stated) .
Result string: 5.32

----------
target: Cholinesterase (Homo sapiens)
Sequence (P06276 whole entry): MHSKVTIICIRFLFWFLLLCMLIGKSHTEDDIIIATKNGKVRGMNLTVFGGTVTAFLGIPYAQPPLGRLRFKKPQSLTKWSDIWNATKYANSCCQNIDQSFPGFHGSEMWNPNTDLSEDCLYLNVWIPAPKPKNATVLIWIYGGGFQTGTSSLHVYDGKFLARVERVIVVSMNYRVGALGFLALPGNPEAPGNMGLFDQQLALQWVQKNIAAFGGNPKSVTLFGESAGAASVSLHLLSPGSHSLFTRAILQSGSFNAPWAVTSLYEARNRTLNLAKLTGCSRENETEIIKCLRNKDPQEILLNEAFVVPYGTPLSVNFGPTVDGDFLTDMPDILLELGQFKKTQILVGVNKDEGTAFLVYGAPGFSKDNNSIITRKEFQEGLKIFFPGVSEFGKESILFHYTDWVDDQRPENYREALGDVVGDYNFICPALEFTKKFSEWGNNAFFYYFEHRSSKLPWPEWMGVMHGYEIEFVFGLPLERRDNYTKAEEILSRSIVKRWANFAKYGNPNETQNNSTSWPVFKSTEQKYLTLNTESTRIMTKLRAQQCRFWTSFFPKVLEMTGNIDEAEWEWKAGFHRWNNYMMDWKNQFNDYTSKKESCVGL
Would you mind telling me the reported IC50 of each entry?
Give bare numbers, in nM.

MOLECULE: CCC(c1ccc(O)c(OC)c1)c1cccc(O)c1O (configuration not stated)
READOUT_UNITS: nM
IC50: 2820

Query string: What IC50 appears in the records for this molecule with Cholinesterase (Homo sapiens)? CCC(c1ccc(O)c(OC)c1)c1ccc(OC)cc1O (configuration not stated)
Result string: 2250
